target: T1, Human Serum Albumin (human, UniProt P02768 25-609); experiment: BIAcore, supernatant over immobilised HSA (6036 RU);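 also: expressed culture supernatants of mutant clones diluted 1:1 in HBS-EP buffer and screened for binding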
T1 construct: also called HSA; antigen
T1 sequence (P02768 25-609 limits assumed): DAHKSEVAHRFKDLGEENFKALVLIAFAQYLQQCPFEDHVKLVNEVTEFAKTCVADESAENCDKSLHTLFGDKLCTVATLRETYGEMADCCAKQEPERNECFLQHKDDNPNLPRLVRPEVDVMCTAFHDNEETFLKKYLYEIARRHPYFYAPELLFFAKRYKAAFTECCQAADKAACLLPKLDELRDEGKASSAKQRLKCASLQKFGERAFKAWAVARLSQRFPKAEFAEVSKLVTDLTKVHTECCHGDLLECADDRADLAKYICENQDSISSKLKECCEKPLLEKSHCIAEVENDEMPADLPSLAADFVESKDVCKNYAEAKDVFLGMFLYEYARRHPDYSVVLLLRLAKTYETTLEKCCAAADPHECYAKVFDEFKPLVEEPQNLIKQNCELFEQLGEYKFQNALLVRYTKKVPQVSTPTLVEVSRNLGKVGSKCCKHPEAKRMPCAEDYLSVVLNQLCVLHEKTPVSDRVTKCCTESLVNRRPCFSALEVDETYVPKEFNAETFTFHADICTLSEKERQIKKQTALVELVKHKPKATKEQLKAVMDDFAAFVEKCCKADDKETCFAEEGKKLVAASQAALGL
endpoint_label: binding result

binder	readout_value
DOM7h-14 A43R (other) VL: DIQMTQSPSSLSASVGDRVTITCRASQWIGSQLSWYQQKPGKRPKLLIMWRSSLQSGVPSRFSGSGSGTDFTLTISSLQPEDFATYYCAQGAALPRTFGQGTKVEIKR	binds
DOM7h-14 Q38G (other) VL: DIQMTQSPSSLSASVGDRVTITCRASQWIGSQLSWYQGKPGKAPKLLIMWRSSLQSGVPSRFSGSGSGTDFTLTISSLQPEDFATYYCAQGAALPRTFGQGTKVEIKR	binds
DOM7h-14 Q38M (other) VL: DIQMTQSPSSLSASVGDRVTITCRASQWIGSQLSWYQMKPGKAPKLLIMWRSSLQSGVPSRFSGSGSGTDFTLTISSLQPEDFATYYCAQGAALPRTFGQGTKVEIKR	binds
